Experiment: Toxicity in AB zebra fish larvae assessed as maximum tolerated concentration after 6 hrs
Parameters: species or system Danio rerio
Details: zebrafish, read-out: MTC
OBSERVED PROPERTY: MNTC at 6 h

* CC(C)=CCC12CC(C(C)(C)O)OC1=C(O)C(=O)c1oc3c4c(cc(O)c3c(=O)c12)OC(C)(C)C=C4 (stereo not drawn) | 0.7 µM
* CC(C)=CCC1(CC=C(C)C)C(=O)C(O)=C(O)c2oc3c4c(cc(O)c3c(=O)c21)OC(C)(C)C=C4 | 12.5 µM
* CC(C)=CCC/C(C)=C/C[C@@]1(CC=C(C)C)C(=O)C(O)=C(O)c2oc3c4c(cc(O)c3c(=O)c21)OC(C)(C)C=C4 | 50 µM

----------
Test: Toxicity in AB zebra fish larvae assessed as mortality at >= 6.2 uM after 6 hrs relative to control
Set-up: species or system Danio rerio
Details: zebrafish
OBSERVED PROPERTY: mortality at 6 h (%)

* CC(C)=CCC12CC(C(C)(C)O)OC1=C(O)C(=O)c1oc3c4c(cc(O)c3c(=O)c12)OC(C)(C)C=C4 (stereo unspecified) | 100
